Entries and their Kd
Molecular target: feline FcRn complex (FcRn-α subunit and β-microglobulin) (feline)
Assay: SPR (Biacore), FcRn on SA chip, pH 7.4
Give the value, in units of nM, as a plain number.

[
  {
    "Binder": "feline IgG1a mutant ID No. 269: S252F, S434R, Q311W (antibody, part only; not given: Variable domains, not shown: another chain or arm of the molecule) constant: ASTTAPSVFPLAPSCGTTSGATVALACLVLGYFPEPVTVSWNSGALTSGVHTFPAVLQASGLYSLSSMVTVPSSRWLSDTFTCNVAHPPSNTKVDKTVRKTDHPPGPKPCDCPKCPPPEMLGGPSIFIFPPKPKDTLFISRTPEVTCLVVDLGPDDSDVQITWFVDNTQVYTAKTSPREEQFNSTYRVVSVLPILHWDWLKGKEFKCKVNSKSLPSPIERTISKAKGQPHEPQVYVLPPAQEELSRNKVSVTCLIKSFHPPDIAVEWEITGQPEPENNYRTTPPQLDSDGTYFVYSKLSVDRSHWQRGNTYTCSVSHEALHRHHTQKSLTQSPGK",
    "Units Of Measure": "nM",
    "Quantitative Result": 1520
  }
]

Task item: Record request: Kd value, item feline IgG1a mutant ID No. 349: S252Y, S428M, S434F, Q311K (antibody, part only; not given: variable domains and light chain, not shown: another chain or arm of the molecule) constant: ASTTAPSVFPLAPSCGTTSGATVALACLVLGYFPEPVTVSWNSGALTSGVHTFPAVLQASGLYSLSSMVTVPSSRWLSDTFTCNVAHPPSNTKVDKTVRKTDHPPGPKPCDCPKCPPPEMLGGPSIFIFPPKPKDTLYISRTPEVTCLVVDLGPDDSDVQITWFVDNTQVYTAKTSPREEQFNSTYRVVSVLPILHKDWLKGKEFKCKVNSKSLPSPIERTISKAKGQPHEPQVYVLPPAQEELSRNKVSVTCLIKSFHPPDIAVEWEITGQPEPENNYRTTPPQLDSDGTYFVYSKLSVDRSHWQRGNTYTCSVMHEALHFHHTQKSLTQSPGK
Reply: 4.78
